Data origin: paper PMC7619385

ΔTm Average values, listed per item
- assayed.system: LmxCLK1 (Leishmania mexicana)
- assay.procedure: biochemical
- Assay type: binding
- experimental.parameters: DSF, 10 µM compound, 2 µM LmxCLK1, mean of two runs
property.name: ΔTm Average

[[record]]
compound = "C=CC(=O)Nc1ccc2ncnc(Nc3cccc(Br)c3)c2c1"
measurement = "-0.2 °C"

[[record]]
compound = "Oc1ccc(Nc2nc(-c3ccc(Cl)cc3)cs2)cc1"
measurement = "0.1 °C"

[[record]]
compound = "O=C(Nc1cccc(Nc2ncc(Br)c(NCCc3cnc[nH]3)n2)c1)N1CCCC1"
measurement = "0.2 °C"

[[record]]
compound = "NCC(=O)Nc1ccc(-n2nc(C(F)(F)F)cc2-c2ccc3c(ccc4ccccc43)c2)cc1"
measurement = "0.0 °C"

[[record]]
compound = "COc1cc2c(N3CCN(C(=O)Nc4ccc(OC(C)C)cc4)CC3)ncnc2cc1OCCCN1CCCCC1"
measurement = "0.0 °C"

[[record]]
compound = "COc1ccc(C(=O)Nc2sc3c(c2C(N)=O)CCCC3)cc1OC"
measurement = "0.0 °C"

[[record]]
compound = "CNC(=O)CN1CCC(Oc2cc3c(Nc4cccc(Cl)c4F)ncnc3cc2OC)CC1 [AZD8931 (Sapitinib)]"
measurement = "-0.1 °C"

[[record]]
compound = "COc1cc2ncnc(Nc3ccc(Cl)cc3F)c2cc1OC"
measurement = "0.1 °C"

[[record]]
compound = "Cc1c(NC(=O)OC[C@@H]2COCCN2)cn2ncnc(Nc3ccc4c(cnn4Cc4cccc(F)c4)c3)c12"
measurement = "0.3 °C"

[[record]]
compound = "CC(C)(C)c1nc(-c2cccc(NS(=O)(=O)c3c(F)cccc3F)c2F)c(-c2ccnc(N)n2)s1"
measurement = "-0.1 °C"

[[record]]
compound = "Cc1cc2c(F)c(Oc3ncnn4cc(OC[C@@H](C)OC(=O)[C@H](C)N)c(C)c34)ccc2[nH]1 [Brivanib Alaninate (BMS-582664)]"
measurement = "0.2 °C"

[[record]]
compound = "O=C(c1cccc(Cl)c1F)N1CCN(Cc2cccc(Nc3nccs3)n2)CC1"
measurement = "1.0 °C"

[[record]]
compound = "COC(=O)Nc1ccc(-c2nc(N3CCOCC3)c3cnn(C4CCN(C(=O)OC)CC4)c3n2)cc1"
measurement = "-0.1 °C"

[[record]]
compound = "O=C1NCCc2[nH]c(-c3ccncc3)cc21"
measurement = "1.0 °C"

[[record]]
compound = "COc1ccc(Cl)cc1NC(=O)Nc1cc(C)nc2ccccc12"
measurement = "-0.1 °C"

[[record]]
compound = "COc1cc2ncnc(Nc3cccc(Cl)c3)c2cc1OC"
measurement = "0.2 °C"

[[record]]
compound = "S=C(NCc1ccc2c(c1)OCO2)N1CCN(c2ncnc3c2oc2ccccc23)CC1"
measurement = "0.1 °C"

[[record]]
compound = "Nc1ncnc2c1c(-c1cnc3[nH]ccc3c1)nn2C1CCCC1"
measurement = "0.8 °C"

[[record]]
compound = "COc1cc2c(Nc3ccc(NC(=O)c4ccccc4)cc3)ncnc2cc1OCCCN1CCOCC1"
measurement = "-0.1 °C"

[[record]]
compound = "Nc1ncnc2c1c(-c1cccc(OCc3ccccc3)c1)cn2C1CC(CN2CCCC2)C1 (stereo not shown)"
measurement = "-0.1 °C"

[[record]]
compound = "O=c1[nH]c2ccc(Cl)cc2c(N[C@@H]2CN3CCC2CC3)c1-c1nc2ccccc2[nH]1"
measurement = "0.2 °C"

[[record]]
compound = "Cc1ccc(Nc2nccc(N(C)c3ccc4c(C)n(C)nc4c3)n2)cc1S(N)(=O)=O.Cl [Pazopanib HCl (GW786034 HCl)]"
measurement = "-0.1 °C"

[[record]]
compound = "Cc1cnc(-c2cnc(NCCNc3ccc(C#N)cn3)nc2-c2ccc(Cl)cc2Cl)[nH]1.Cl [CHIR-99021 (CT99021) HCl]"
measurement = "0.0 °C"

[[record]]
compound = "CCN(CC)CCCC(C)Nc1nc(C)cc(Nc2ccc3nc(C)cc(N)c3c2)n1 (stereo not shown)"
measurement = "0.0 °C"

[[record]]
compound = "COC(=O)c1ccc2c(c1)NC(=O)/C2=C(\\Nc1ccc(N(C)C(=O)CN2CCN(C)CC2)cc1)c1ccccc1"
measurement = "0.2 °C"

[[record]]
compound = "Cc1cc(C)nc(NS(=O)(=O)c2ccc(NC(=S)NC(=O)COc3ccc(Br)cc3Cl)cc2)n1"
measurement = "0.0 °C"

[[record]]
compound = "N#C/C(=C/c1ccc(O)c(O)c1)C(=O)NCc1ccccc1"
measurement = "0.1 °C"

[[record]]
compound = "CO[C@H]1C[C@@H]2CC[C@@H](C)[C@@](O)(O2)C(=O)C(=O)N2CCCC[C@H]2C(=O)O[C@H]([C@H](C)C[C@@H]2CC[C@@H](OC(=O)C(C)(CO)CO)[C@H](OC)C2)CC(=O)[C@H](C)/C=C(\\C)[C@@H](O)[C@@H](OC)C(=O)[C@H](C)C[C@H](C)/C=C/C=C/C=C/1C"
measurement = "-0.2 °C"

[[record]]
compound = "Cc1ccc(NC(=O)c2cccc(N(C)C)c2)cc1NC(=O)c1ccc(O)cc1"
measurement = "-0.3 °C"

[[record]]
compound = "CNC(=O)c1nn(C)c2c1C(C)(C)Cc1cnc(Nc3ccc(N4CCN(C)CC4)cc3)nc1-2"
measurement = "0.0 °C"

[[record]]
compound = "Cc1ccc(F)c(NC(=O)Nc2ccc(-c3cccc4[nH]nc(N)c34)cc2)c1"
measurement = "0.4 °C"


* * *

- assayed.system: LmxCLK1 (Leishmania mexicana, UniProt E9AMP2)
- assay.procedure: biochemical
- Type: binding
- experimental.parameters: DSF, 10 µM compound, 2 µM LmxCLK1, Run 1
ΔTm Run 1 values, listed per item
property.name: ΔTm Run 1 (°C)

[[record]]
molecule = "Nc1ncnc2c1c(-c1cnc3[nH]ccc3c1)nn2C1CCCC1"
unit_tag = "°C"
measurement = 0.9

[[record]]
molecule = "C1=N/C2=N/c3ccc(OCCN4CCCC4)c(c3)COC/C=C/COCc3cccc(c3)C(=C1)N2 [Pacritinib (SB1518)]"
unit_tag = "°C"
measurement = 0.2

[[record]]
molecule = "CN(C)c1ccc(-c2nc3ncc(Cl)c(N4CCN(CC(=O)Nc5nccs5)CC4)c3[nH]2)cc1"
unit_tag = "°C"
measurement = -0.1

[[record]]
molecule = "COc1ccc(CNC(=O)Nc2ncc([N+](=O)[O-])s2)cc1"
unit_tag = "°C"
measurement = 0.0

[[record]]
molecule = "Cc1ccc(NC(=O)c2ccc(CN3CCN(C)CC3)cc2)cc1Nc1nc(-c2cccnc2)cs1"
unit_tag = "°C"
measurement = 0.3

[[record]]
molecule = "Cc1cc(CN2CCN(c3c(Br)cnc4nc(-c5ccc(N6CCN(C)CC6)cc5)[nH]c34)CC2)no1"
unit_tag = "°C"
measurement = 0.3

[[record]]
molecule = "O=C(NOCC1CC1)c1ccc(F)c(F)c1Nc1ccc(I)cc1Cl"
unit_tag = "°C"
measurement = 0.1

[[record]]
molecule = "Cn1cnc2c(F)c(Nc3ccc(Br)cc3F)c(C(=O)NOCCO)cc21"
unit_tag = "°C"
measurement = -0.2

[[record]]
molecule = "Cl.Cl.O=S(=O)(NCCNC/C=C/c1ccc(Br)cc1)c1cccc2cnccc12 [H 89 2HCl]"
unit_tag = "°C"
measurement = 0.2

[[record]]
molecule = "CS(=O)(=O)c1cccc(CNc2nc(Nc3ccc4c(c3)CCC(=O)N4)ncc2C(F)(F)F)c1"
unit_tag = "°C"
measurement = 0.1

[[record]]
molecule = "CO[C@H]1C[C@@H]2CC[C@@H](C)[C@@](O)(O2)C(=O)C(=O)N2CCCC[C@H]2C(=O)O[C@H]([C@H](C)C[C@@H]2CC[C@@H](OC(=O)C(C)(CO)CO)[C@H](OC)C2)CC(=O)[C@H](C)/C=C(\\C)[C@@H](O)[C@@H](OC)C(=O)[C@H](C)C[C@H](C)/C=C/C=C/C=C/1C"
unit_tag = "°C"
measurement = -0.1

[[record]]
molecule = "Cn1cc(C2=C(c3cn(C4CCN(Cc5ccccn5)CC4)c4ccccc34)C(=O)NC2=O)c2ccccc21"
unit_tag = "°C"
measurement = 0.1

[[record]]
molecule = "COc1cccc(-c2cc(=O)c3ccccc3o2)c1N"
unit_tag = "°C"
measurement = 0.0

[[record]]
molecule = "Cc1ccc(NC(=O)c2cccc(C(C)(C)C#N)c2)cc1Nc1ccc2ncn(C)c(=O)c2c1"
unit_tag = "°C"
measurement = 0.4

[[record]]
molecule = "Nc1cc(C(F)(F)F)c(-c2cc(N3CCOCC3)nc(N3CCOCC3)n2)cn1"
unit_tag = "°C"
measurement = 0.1


* * *

- assayed.system: LmxCLK1 (Leishmania mexicana, UniProt E9AMP2)
- Sequence (E9AMP2 1-422): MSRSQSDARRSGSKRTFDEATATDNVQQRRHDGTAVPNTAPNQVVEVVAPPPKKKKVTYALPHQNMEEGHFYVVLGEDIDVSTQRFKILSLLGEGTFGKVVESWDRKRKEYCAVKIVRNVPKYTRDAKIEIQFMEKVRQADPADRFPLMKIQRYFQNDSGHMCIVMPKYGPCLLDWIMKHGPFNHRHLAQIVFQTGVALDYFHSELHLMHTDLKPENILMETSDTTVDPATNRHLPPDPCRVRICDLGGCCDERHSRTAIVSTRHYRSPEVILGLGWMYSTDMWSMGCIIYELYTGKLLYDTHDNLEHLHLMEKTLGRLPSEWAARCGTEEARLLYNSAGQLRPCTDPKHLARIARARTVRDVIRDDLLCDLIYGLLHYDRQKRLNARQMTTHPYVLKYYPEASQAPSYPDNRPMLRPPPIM
- assay.procedure: biochemical
- Assay type: binding
- experimental.parameters: DSF, 10 µM compound, 2 µM LmxCLK1, Run 1
Threshold check on ΔTm Run 1: strictly below 0.3 °C is criterion met; on or above 0.3 °C is criterion not met.

[[record]]
compound = "CCC[C@H](NC(=O)/C(C#N)=C/c1cccc(Br)n1)c1ccccc1 [Degrasyn (WP1130)]"
label_class = "criterion not met"

[[record]]
compound = "Cc1cnc(Nc2ccc(OCCN3CCCC3)cc2)nc1Nc1cccc(S(=O)(=O)NC(C)(C)C)c1 [TG101348 (SAR302503)]"
label_class = "criterion met"

[[record]]
compound = "COc1ccc(Cl)cc1NC(=O)Nc1cc(C)nc2ccccc12"
label_class = "criterion met"

[[record]]
compound = "CN1CCN(c2ccc(OC(F)(F)F)c(Nc3ncc4c(n3)-c3c(c(C(N)=O)nn3CCO)CC4)c2)CC1"
label_class = "criterion met"

[[record]]
compound = "COc1cc2ncnc(Nc3cccc(Cl)c3)c2cc1OC"
label_class = "criterion met"

